- Tested on: RAW-Dual (murine macrophage reporter line)
- ASSAY_PROTOCOL: NF-kB reporter (SEAP) activity fold change vs agonist alone; higher = enhanced NF-kB activity
- MEASUREMENT_PARAMETERS: modulator concentration 10 µM; agonist: MPLA […]
READOUT_TYPE: NF-kB reporter
The reply should be a number, written without any unit.

Here's what some known entries look like.
query: Please report NF-kB reporter for the following compound: CCn1c2ccccc2c2cc(CNCCc3ccc(OC)cc3)ccc21
result: 1.24

query: Given the compound NCC(O)(c1ccc(Cl)cc1)c1ccc(Cl)cc1 , write its reported NF-kB reporter.
result: 1.03

query: Entry Cc1cc(C(=O)NNCc2ccccc2)no1 [Prestw-795] needs its NF-kB reporter filled in; supply it.
result: 0.992

query: State its NF-kB reporter for this compound: COC(=O)C1C(O)CCC2CN3CCc4c([nH]c5ccccc45)C3CC21.Cl (stereo not given)
result: 0.906

New cases:
query: Give the measured NF-kB reporter for NC[C@@H]1O[C@H](O[C@@H]2[C@@H](CO)OC(O[C@@H]3[C@@H](O)[C@H](N)C[C@H](N)[C@H]3O[C@H]3O[C@H](CN)[C@@H](O)[C@H](O)[C@H]3N)[C@@H]2O)[C@H](N)[C@@H](O)[C@@H]1O.O=S(=O)(O)O (stereo not given in full)
result: 0.983

query: For the compound O=[N+]([O-])c1ccc(-n2cccc2C=NNc2nc(N3CCOCC3)nc(N3CCOCC3)n2)cc1 , report NF-kB reporter.
result: 1.14

query: Return NF-kB reporter for the following compound: COc1cc(-c2nnc(SCc3ccc([N+](=O)[O-])cc3)n2-c2ccccc2)cc(OC)c1OC
result: 0.994

query: For the compound O=C(CSC1CCCCC1)Nc1cc(C(F)(F)F)ccc1Cl , give its measured NF-kB reporter value.
result: 1.39

query: For the compound NC(=O)CN1C(=O)C2C3c4ccccc4C(c4ccccc43)C2C1=O (stereo not given) , give its reported NF-kB reporter.
result: 0.965
